# procedure summary: yeast display, Sf9 membrane polyspecificity reagent, FACS + sequencing; frameworks hold sequencing errors
endpoint name: polyreactivity (PSR sort gate)

seq_string=QVQLVESGGGLVQAGGGRRGSGAAAGSIFAWYAMGWYRQAPGTERELVATITWSGGSTYYADSVKGRFTISRDIAKNTVYLQMNSLKREDTAVYYCAAEVVGIWYDLWYQGDYWGQGTQVTVSS recorded_measurement="low polyreactivity"
seq_string=QVQLVESGGGLVQAGGSLRLSCAASGSTFGYNAMGWYRQAPGKERELVAAITRSGGSTDYADSVKGRFTISRDNAKNTVYFQMNSLKPEDTAVYYCAAEGTGLQRYGYFGDDGYWGQGTQVTVSS recorded_measurement="low polyreactivity"
seq_string=QVQLQESGGGLVQAGGSQRLSCAASGSISILQSRGCYRQAPGKERELVAGINWGATTYYADSVKGRLTTSRDYAKNTVYLQMNSLKPEDTAVYYCAVPTYYTYPLLYWGQGTQVTVSS recorded_measurement="low polyreactivity"
seq_string=QVQLVESGGGLVQAGGSLRLSCAASGSTFGGYAMGWYRQAPGKERELVAAITYSGGSTYYADSVKGRFTISRDNAKNTVYLQMNSLKPEVTAVYYCNADDDDALPWWWPYVLDVDYWGQGTQVTVSS recorded_measurement="low polyreactivity"
seq_string=QVQLVESGGGLVQAGGSLRLRCAASGFIFVAYAMGWYIQAPGKERELVAAISWSGGSTYADSVKGRFTISRHNAKNTVYLQMNSLKPEDTAVYYCDARTSPIKTNNWYSQRYDSWGQGTQVTVSS recorded_measurement="low polyreactivity"
seq_string=QVQHVESGGGLVQAGGSLRLSCAASGSTFTAYAMGWYRQAPGKVSELVAVITSGGGTYYADSVKVRFTISRDNANNTDYLQMNSLKPEDTAVYYCHSARTYAGTYIYRYGYWGQGTQVTVSS recorded_measurement="high polyreactivity"
seq_string=QVQLVESGGGIVQAGGSLRLSCAASGSILYFNAMGWYRQAPGKERELVAAISRTGSRTYYADSVKGRFTISRDNAKNTVYLQMNSLKPEDTAVYYCAAYNGITSHLRFDYWGQGTQVTVSS recorded_measurement="high polyreactivity"
seq_string=QVQLVESGGGLVQAGGSLRLSCAASGRIFVYNVMGWYSQSPGKERELVAAISWGTGSTYADSVKGRFTISRDNAKNTVYLQMNSLKPEDTAVYYCADDSFIPPYDHWGQGTQVTVSS recorded_measurement="low polyreactivity"
seq_string=QVQLVESGGGLVQAGGSLRLSCAASGSTIEANAMGWYRQAPGKERELVAVNTWTGGSTYYADSVKGRFTISRDNAKNTVYLQMNSLKPEDTAVYYCAADGVVPGRFFWPAHEYDYWGQGTQVTVSS recorded_measurement="low polyreactivity"
seq_string=QVQLVESGGGLVQAGGSLSLSCAASGRIFYRYAMGWYRQAPVKERELVAAISGSVGSTYADSVKGRFTISRDNAKNTVYLQMISLKPEDTAVYYCARETYRRYGAYDYWGQGTQVTVSS recorded_measurement="low polyreactivity"
seq_string=QVQLVESGGGLVQAGGSLRFSCAASGFTFSSNAMGWYRQAPGKERELVAAITASGASTYYADSVKGRFTISRDHAKNTVYLQMNSLKPEDTAVYYCAVKTSPRRYYWGQGTQVTVSS recorded_measurement="high polyreactivity"
seq_string=QVQLVESGGGLEQAGGRLRLICAASGRTFDRYPMGWYRQAPGKESELVAAITWSGGRTYYADSVKGRFTISRDNAKNTVYLQMNSLKPEDTAVYYCAADNSYRGYHSPYEYWGQGTQVTVSS recorded_measurement="low polyreactivity"
seq_string=QVQLVESGGGLVQAGGSLRLSCAASGFIFIRNAMGWYRQAPGKEWELVAAISSGGRTYYADSVKGRFTISRDNAKNTVYLQMNSLKPEDTAVYYCAARVITHYGRYYYWGQGTQVTVSS recorded_measurement="high polyreactivity"
seq_string=QVQLVESGGGLVQAGGSLRLSCAACGRIFTPNAMGWYRPAPGKERELVAAITWSGDNTYADSVKGRFTISRDNAKNTVYLQMNSLKPEDTAVYYCAAAYGYGHKNYGYWRQGTQVTVSS recorded_measurement="low polyreactivity"
